# System: Escherichia coli TOP10
# test.protocol: shrunken log2 fold change of peptide-encoding DNA abundance (4.5 h post-induction vs induction); higher = less antimicrobial activity (less host growth inhibition)
# settings: time post-induction: 4.5 h; library: site-saturation at positions 5, 18, 19, 20
Classify as follows. Reported shrunken log2 fold change greater than or equal to 0.07: yes. Reported shrunken log2 fold change below: no.

Confirm if shrunken log2 fold change reported for the sequence RRIRFRPPRLPRPRPRPHHCPRP is 0.07 or above.
no

Confirm if shrunken log2 fold change reported for the sequence RRIRERPPRLPRPRPRPLAKPRP is 0.07 or above.
yes

Confirm if shrunken log2 fold change reported for the sequence RRIRDRPPRLPRPRPRPYIMPRP is 0.07 or above.
no

Confirm if shrunken log2 fold change reported for the sequence RRIRARPPRLPRPRPRPRSAPRP is 0.07 or above.
yes

Confirm if shrunken log2 fold change reported for the sequence RRIRKRPPRLPRPRPRPNGFPRP is 0.07 or above.
yes

Confirm if shrunken log2 fold change reported for the sequence RRIRSRPPRLPRPRPRPEPPPRP is 0.07 or above.
yes

Confirm if shrunken log2 fold change reported for the sequence RRIRARPPRLPRPRPRPPWNPRP is 0.07 or above.
yes

Confirm if shrunken log2 fold change reported for the sequence RRIRRRPPRLPRPRPRPHEVPRP is 0.07 or above.
no

Confirm if shrunken log2 fold change reported for the sequence RRIRFRPPRLPRPRPRPLCNPRP is 0.07 or above.
no

Confirm if shrunken log2 fold change reported for the sequence RRIRCRPPRLPRPRPRPTQHPRP is 0.07 or above.
yes

Confirm if shrunken log2 fold change reported for the sequence RRIRTRPPRLPRPRPRPYVPPRP is 0.07 or above.
no

Confirm if shrunken log2 fold change reported for the sequence RRIRDRPPRLPRPRPRPMKHPRP is 0.07 or above.
no

Confirm if shrunken log2 fold change reported for the sequence RRIRCRPPRLPRPRPRPIASPRP is 0.07 or above.
no

Confirm if shrunken log2 fold change reported for the sequence RRIRDRPPRLPRPRPRPQQFPRP is 0.07 or above.
yes

====

# Tested on: Escherichia coli TOP10
# test.protocol: shrunken log2 fold change of peptide-encoding DNA abundance (4.5 h post-induction vs induction); higher = less antimicrobial activity (less host growth inhibition)
# settings: time post-induction: 4.5 h; library: site-saturation at positions 5, 18, 19, 20
measured.property: shrunken log2 fold change

shrunken log2 fold change for RRIRDRPPRLPRPRPRPPIAPRP is -0.0649

shrunken log2 fold change for RRIRVRPPRLPRPRPRPESVPRP is -0.204

shrunken log2 fold change for RRIRIRPPRLPRPRPRPRLDPRP is 0.1

shrunken log2 fold change for RRIRKRPPRLPRPRPRPKSYPRP is -0.177

shrunken log2 fold change for RRIRIRPPRLPRPRPRPSYDPRP is -0.414

shrunken log2 fold change for RRIRERPPRLPRPRPRPDTCPRP is -0.0337

shrunken log2 fold change for RRIRFRPPRLPRPRPRPFGMPRP is -0.223

shrunken log2 fold change for RRIRWRPPRLPRPRPRPFPCPRP is -0.0902

====

# Tested on: Escherichia coli TOP10;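 also: peptides expressed intracellularly from a pBAD plasmid library in pooled LB shake-flask culture, induced with 0.3% L-arabinose, DNA abundance read by NGS, three biological replicates, DESeq2 with apeglm shrinkage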
# test.protocol: shrunken log2 fold change of peptide-encoding DNA abundance (4.5 h post-induction vs induction); higher = less antimicrobial activity (less host growth inhibition)
# settings: time post-induction: 4.5 h; library: site-saturation at positions 5, 18, 19, 20
Classify as follows. Reported shrunken log2 fold change greater than or equal to -0.05: Criterion met. Reported shrunken log2 fold change below: Criterion not met.

Confirm if shrunken log2 fold change reported for the sequence RRIRSRPPRLPRPRPRPKSAPRP is -0.05 or above.
Criterion met

Confirm if shrunken log2 fold change reported for the sequence RRIRYRPPRLPRPRPRPCIWPRP is -0.05 or above.
Criterion not met

Confirm if shrunken log2 fold change reported for the sequence RRIRLRPPRLPRPRPRPFFVPRP is -0.05 or above.
Criterion not met

Confirm if shrunken log2 fold change reported for the sequence RRIRYRPPRLPRPRPRPIDYPRP is -0.05 or above.
Criterion met

Confirm if shrunken log2 fold change reported for the sequence RRIRNRPPRLPRPRPRPSQTPRP is -0.05 or above.
Criterion met

Confirm if shrunken log2 fold change reported for the sequence RRIRFRPPRLPRPRPRPSPTPRP is -0.05 or above.
Criterion met

Confirm if shrunken log2 fold change reported for the sequence RRIRWRPPRLPRPRPRPNANPRP is -0.05 or above.
Criterion met

Confirm if shrunken log2 fold change reported for the sequence RRIRHRPPRLPRPRPRPWYIPRP is -0.05 or above.
Criterion not met

Confirm if shrunken log2 fold change reported for the sequence RRIRARPPRLPRPRPRPYPWPRP is -0.05 or above.
Criterion not met

Confirm if shrunken log2 fold change reported for the sequence RRIRGRPPRLPRPRPRPVQMPRP is -0.05 or above.
Criterion met

Confirm if shrunken log2 fold change reported for the sequence RRIRMRPPRLPRPRPRPTDHPRP is -0.05 or above.
Criterion met

Confirm if shrunken log2 fold change reported for the sequence RRIRLRPPRLPRPRPRPYVSPRP is -0.05 or above.
Criterion met

Confirm if shrunken log2 fold change reported for the sequence RRIRTRPPRLPRPRPRPYKFPRP is -0.05 or above.
Criterion met

Confirm if shrunken log2 fold change reported for the sequence RRIRTRPPRLPRPRPRPARNPRP is -0.05 or above.
Criterion met

Confirm if shrunken log2 fold change reported for the sequence RRIRQRPPRLPRPRPRPTLFPRP is -0.05 or above.
Criterion met

Confirm if shrunken log2 fold change reported for the sequence RRIRTRPPRLPRPRPRPSFQPRP is -0.05 or above.
Criterion not met

Confirm if shrunken log2 fold change reported for the sequence RRIRDRPPRLPRPRPRPTVYPRP is -0.05 or above.
Criterion met

Confirm if shrunken log2 fold change reported for the sequence RRIRHRPPRLPRPRPRPEPVPRP is -0.05 or above.
Criterion met

Confirm if shrunken log2 fold change reported for the sequence RRIRIRPPRLPRPRPRPEPPPRP is -0.05 or above.
Criterion met

Confirm if shrunken log2 fold change reported for the sequence RRIRKRPPRLPRPRPRPQRPPRP is -0.05 or above.
Criterion met

Confirm if shrunken log2 fold change reported for the sequence RRIRVRPPRLPRPRPRPVSYPRP is -0.05 or above.
Criterion not met

Confirm if shrunken log2 fold change reported for the sequence RRIRNRPPRLPRPRPRPYHVPRP is -0.05 or above.
Criterion not met

Confirm if shrunken log2 fold change reported for the sequence RRIRPRPPRLPRPRPRPYLDPRP is -0.05 or above.
Criterion not met

Confirm if shrunken log2 fold change reported for the sequence RRIRQRPPRLPRPRPRPIHQPRP is -0.05 or above.
Criterion not met

Confirm if shrunken log2 fold change reported for the sequence RRIRMRPPRLPRPRPRPDKPPRP is -0.05 or above.
Criterion met

Confirm if shrunken log2 fold change reported for the sequence RRIRIRPPRLPRPRPRPVNMPRP is -0.05 or above.
Criterion not met

Confirm if shrunken log2 fold change reported for the sequence RRIRQRPPRLPRPRPRPTWLPRP is -0.05 or above.
Criterion met

Confirm if shrunken log2 fold change reported for the sequence RRIRERPPRLPRPRPRPNLLPRP is -0.05 or above.
Criterion met

Confirm if shrunken log2 fold change reported for the sequence RRIRFRPPRLPRPRPRPGNGPRP is -0.05 or above.
Criterion met

Confirm if shrunken log2 fold change reported for the sequence RRIRRRPPRLPRPRPRPVAFPRP is -0.05 or above.
Criterion met

Confirm if shrunken log2 fold change reported for the sequence RRIRYRPPRLPRPRPRPMYPPRP is -0.05 or above.
Criterion met

Confirm if shrunken log2 fold change reported for the sequence RRIRFRPPRLPRPRPRPRRDPRP is -0.05 or above.
Criterion met

Confirm if shrunken log2 fold change reported for the sequence RRIRGRPPRLPRPRPRPRPFPRP is -0.05 or above.
Criterion met

Confirm if shrunken log2 fold change reported for the sequence RRIRQRPPRLPRPRPRPPLRPRP is -0.05 or above.
Criterion met

Confirm if shrunken log2 fold change reported for the sequence RRIRLRPPRLPRPRPRPLVFPRP is -0.05 or above.
Criterion not met

Confirm if shrunken log2 fold change reported for the sequence RRIRFRPPRLPRPRPRPPFGPRP is -0.05 or above.
Criterion met

Confirm if shrunken log2 fold change reported for the sequence RRIRGRPPRLPRPRPRPYRWPRP is -0.05 or above.
Criterion met

Confirm if shrunken log2 fold change reported for the sequence RRIRIRPPRLPRPRPRPGTTPRP is -0.05 or above.
Criterion met

Confirm if shrunken log2 fold change reported for the sequence RRIRSRPPRLPRPRPRPFFDPRP is -0.05 or above.
Criterion met

Confirm if shrunken log2 fold change reported for the sequence RRIRFRPPRLPRPRPRPKFVPRP is -0.05 or above.
Criterion met

Confirm if shrunken log2 fold change reported for the sequence RRIRHRPPRLPRPRPRPLTHPRP is -0.05 or above.
Criterion not met

Confirm if shrunken log2 fold change reported for the sequence RRIRTRPPRLPRPRPRPEPDPRP is -0.05 or above.
Criterion met

Confirm if shrunken log2 fold change reported for the sequence RRIRTRPPRLPRPRPRPEWPPRP is -0.05 or above.
Criterion met

Confirm if shrunken log2 fold change reported for the sequence RRIRTRPPRLPRPRPRPHCLPRP is -0.05 or above.
Criterion not met

Confirm if shrunken log2 fold change reported for the sequence RRIRNRPPRLPRPRPRPTTCPRP is -0.05 or above.
Criterion not met

Confirm if shrunken log2 fold change reported for the sequence RRIRTRPPRLPRPRPRPWMQPRP is -0.05 or above.
Criterion not met

Confirm if shrunken log2 fold change reported for the sequence RRIRPRPPRLPRPRPRPKPMPRP is -0.05 or above.
Criterion met

Confirm if shrunken log2 fold change reported for the sequence RRIRHRPPRLPRPRPRPYEDPRP is -0.05 or above.
Criterion not met

Confirm if shrunken log2 fold change reported for the sequence RRIRQRPPRLPRPRPRPNCIPRP is -0.05 or above.
Criterion met

Confirm if shrunken log2 fold change reported for the sequence RRIRSRPPRLPRPRPRPHEGPRP is -0.05 or above.
Criterion met

Confirm if shrunken log2 fold change reported for the sequence RRIRYRPPRLPRPRPRPQMQPRP is -0.05 or above.
Criterion not met

Confirm if shrunken log2 fold change reported for the sequence RRIRARPPRLPRPRPRPECLPRP is -0.05 or above.
Criterion met

Confirm if shrunken log2 fold change reported for the sequence RRIRARPPRLPRPRPRPYMAPRP is -0.05 or above.
Criterion not met

Confirm if shrunken log2 fold change reported for the sequence RRIRCRPPRLPRPRPRPQAMPRP is -0.05 or above.
Criterion met

Confirm if shrunken log2 fold change reported for the sequence RRIRTRPPRLPRPRPRPNGFPRP is -0.05 or above.
Criterion not met

Confirm if shrunken log2 fold change reported for the sequence RRIRNRPPRLPRPRPRPQFRPRP is -0.05 or above.
Criterion met

Confirm if shrunken log2 fold change reported for the sequence RRIRIRPPRLPRPRPRPDFIPRP is -0.05 or above.
Criterion not met

Confirm if shrunken log2 fold change reported for the sequence RRIRDRPPRLPRPRPRPGMIPRP is -0.05 or above.
Criterion met

Confirm if shrunken log2 fold change reported for the sequence RRIRPRPPRLPRPRPRPDSSPRP is -0.05 or above.
Criterion met

Confirm if shrunken log2 fold change reported for the sequence RRIRVRPPRLPRPRPRPYGGPRP is -0.05 or above.
Criterion not met

Confirm if shrunken log2 fold change reported for the sequence RRIRMRPPRLPRPRPRPTTVPRP is -0.05 or above.
Criterion met

Confirm if shrunken log2 fold change reported for the sequence RRIRIRPPRLPRPRPRPWVAPRP is -0.05 or above.
Criterion met
